# System: HOP-92
# Protocol description: NCI-60 one-dose SRB screening
# Assay type: cell-based
# Study conditions: Homo sapiens, HOP-92, Non-Small Cell Lung Cancer, 10 µM one dose, 48 h, read-out: growth percentage
Examples of compounds with documented activity at 10 µM follow.
Returns: string containing the number followed by the unit.

Consider the reported activity at 10 µM for these compounds:
{"Compound": "Cc1nn(-c2ccccc2)c2nc(CNc3ccc(NCc4c(-c5ccccc5)no[n+]4[O-])cc3)[nH]c(=O)c12 [14b]", "activity at 10 µM": "93.2%"}
{"Compound": "Cc1nc(Nc2ccc(OCc3c(-c4ccccc4)no[n+]3[O-])cc2)c2c(C)nn(-c3ccc(Br)cc3)c2n1", "activity at 10 µM": "94.6%"}
{"Compound": "Cc1nn(-c2ccc(Br)cc2)c2nc(C(F)(F)F)nc(Nc3ccc(NCc4c(-c5ccccc5)no[n+]4[O-])cc3)c12 [12c]", "activity at 10 µM": "82.3%"}

Could you share which activity at 10 µM value was measured for Cc1nn(-c2ccc(Br)cc2)c2nc(CCl)[nH]c(=O)c12 [13c] ? 101%

---

# Test system: HCT-116
# Protocol description: NCI-60 one-dose SRB screening
# Format: cell-based
# Study conditions: Homo sapiens, HCT-116, Colon Cancer, 10 µM one dose, 48 h, read-out: growth percentage
# Experimental: The structures of the synthesized compounds 6a–h, 12a–c, 11, 13a–c, and 14a–c were submitted to the National Cancer Institute’s Developmental Therapeutics Program (NCI-DTP), and all of them were selected for preliminary in vitro anticancer activity screening against NCI-59 human cancer cell lines at a concentration of 10 µM, using the sulforhodamine B (SRB) assay to determine the growth percentage and cell viability. […]
Assay endpoint: activity at 10 µM (%)
State just the number; it will be interpreted in %.

Consider the reported activity at 10 µM for these compounds:
{"Compound": "Cc1nc(Nc2ccc(OCc3c(-c4ccccc4)no[n+]3[O-])cc2)c2c(C)nn(-c3ccccc3)c2n1 [6d]", "Assay endpoint": "activity at 10 µM", "Endpoint value": 104}
{"Compound": "Cc1nn(-c2ccc(Br)cc2)c2nc(C(F)(F)F)nc(Nc3ccc(NCc4c(-c5ccccc5)no[n+]4[O-])cc3)c12 [12c]", "Assay endpoint": "activity at 10 µM", "Endpoint value": 31.9}
{"Compound": "Cc1nn(-c2ccccc2)c2nc(CNc3ccc(NCc4c(-c5ccccc5)no[n+]4[O-])cc3)[nH]c(=O)c12 [14b]", "Assay endpoint": "activity at 10 µM", "Endpoint value": 79}
{"Compound": "Cc1nc(Nc2ccc(OCc3c(-c4ccccc4)no[n+]3[O-])cc2)c2cnn(-c3ccccc3)c2n1 [6b]", "Assay endpoint": "activity at 10 µM", "Endpoint value": 99.2}
{"Compound": "Cc1nn(-c2ccc(Br)cc2)c2nc(CNc3ccc(NCc4c(-c5ccccc5)no[n+]4[O-])cc3)[nH]c(=O)c12 [14c]", "Assay endpoint": "activity at 10 µM", "Endpoint value": 93.8}

Could you share which activity at 10 µM value was measured for Cc1nc(Nc2ccc(OCc3c(-c4ccccc4)no[n+]3[O-])cc2)c2c(C)nn(-c3ccc(Br)cc3)c2n1 [6h] ? 71.5

Could you share which activity at 10 µM value was measured for Nc1ccc(NCc2c(-c3ccccc3)no[n+]2[O-])cc1 [compound 11] ? 98.4

Could you share which activity at 10 µM value was measured for [O-][n+]1onc(-c2ccccc2)c1COc1ccc(Nc2ncnc3c2cnn3-c2ccccc2)cc1 [6a] ? 93

Could you share which activity at 10 µM value was measured for O=c1[nH]c(CCl)nc2c1cnn2-c1ccccc1 [13a] ? 94.9

Could you share which activity at 10 µM value was measured for [O-][n+]1onc(-c2ccccc2)c1COc1ccc(Nc2ncnc3c2cnn3-c2ccc(Br)cc2)cc1 [6e] ? 92.7

// data source = paper PMC8880564
